Documented log10(IC50) across a set of compounds
Target: human NET (Homo sapiens, UniProt P23975)
Construct: expressed in transfected cells
Sequence (P23975 whole entry): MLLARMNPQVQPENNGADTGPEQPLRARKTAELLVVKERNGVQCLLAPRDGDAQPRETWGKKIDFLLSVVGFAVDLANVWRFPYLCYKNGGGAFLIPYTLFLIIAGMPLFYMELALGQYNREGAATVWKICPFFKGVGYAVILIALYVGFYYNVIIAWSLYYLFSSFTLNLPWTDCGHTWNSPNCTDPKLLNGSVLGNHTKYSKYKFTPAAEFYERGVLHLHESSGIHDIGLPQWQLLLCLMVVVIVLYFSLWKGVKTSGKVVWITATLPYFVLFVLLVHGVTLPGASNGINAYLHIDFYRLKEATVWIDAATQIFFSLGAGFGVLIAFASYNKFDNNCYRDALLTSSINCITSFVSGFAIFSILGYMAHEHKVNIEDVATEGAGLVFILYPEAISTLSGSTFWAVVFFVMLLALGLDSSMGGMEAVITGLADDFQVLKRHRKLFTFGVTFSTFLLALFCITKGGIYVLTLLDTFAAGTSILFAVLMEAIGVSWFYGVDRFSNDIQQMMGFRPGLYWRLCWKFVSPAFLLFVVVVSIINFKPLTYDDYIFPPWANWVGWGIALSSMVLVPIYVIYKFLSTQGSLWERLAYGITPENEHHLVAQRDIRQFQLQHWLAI
Assay: cell-based
Settings: mean (95% confidence interval), non-linear regression; read-out: IC50 (µM) NET
Lab note - IC50 converted to log10 from values in µM.

>  <compound>
C[C@H](N)C(=O)c1ccc(CO)cc1

>  <value>
0.78

$$$$

query: Would you kindly share the measured log10(IC50) for CN[C@@H](C)[C@H](O)c1ccc(CO)cc1 [Dihydro-(R,S)-4-OH-MMC] ?
result: 1.73

query: Would you kindly share the measured log10(IC50) for Cc1ccc([C@H](O)[C@H](C)N)cc1 [Dihydro-(S,S)-4-MC] ?
result: 0.98

query: Would you kindly share the measured log10(IC50) for C[C@@H](N)[C@H](O)c1ccc(CO)cc1 [Dihydro-(R,R)-4-OH-MC] ?
result: 1.67

query: Would you kindly share the measured log10(IC50) for CN[C@H](C)[C@H](O)c1ccc(CO)cc1 [Dihydro-(R,R)-4-OH-MMC] ?
result: 1.57

query: Would you kindly share the measured log10(IC50) for C[C@@H](N)[C@@H](O)c1ccc(CO)cc1 [Dihydro-(S,R)-4-OH-MC] ?
result: 1.92

query: Would you kindly share the measured log10(IC50) for C[C@H](N)[C@H](O)c1ccc(CO)cc1 [Dihydro-(R,S)-4-OH-MC] ?
result: 1.79
